# testSettings: 303.15 K; 101 kPa; Liquid; Capillary tube (Ostwald / Ubbelohde) method
Hi! Just check whether viscosity is below 0.4 mPa·s. Below gives label 1, equal or above gives label 0.

State whether 0.4 mPa·s exceeds viscosity recorded for CC(C)(C)Cl [2-chloro-2-methylpropane] . label 0

Given CCC(C)Cl (stereo not given) [2-chlorobutane] , is recorded viscosity strictly lower than 0.4 mPa·s? label 1

Is viscosity strictly under 0.4 mPa·s for the entry CC(C)OC(C)C [diisopropyl ether] ? label 1

* * *

# testSettings: 288.15 K; 101.3 kPa; Liquid
endpoint: mass density (kg/m3)
Write the value in kg/m3 as a bare number.

Looking for the measured mass density of CC(C)(C)Cl [2-chloro-2-methylpropane] , can you help? 849.243

Need mass density of CC(C)CCl [1-chloro-2-methylpropane] , thanks. 883.211

Dear colleague, I am looking for the recorded mass density of the following compound: CCCCCl [1-chlorobutane] 891.855

Given the compound CC(C)OC(C)C [diisopropyl ether] , what is its reported mass density? 728.692

Any idea what mass density was measured for CCC(C)Cl (stereo not given) [2-chlorobutane] ? 878.756

* * *

# testSettings: 288.15 K; 101 kPa; Liquid; Capillary tube (Ostwald / Ubbelohde) method
endpoint: viscosity (mPa·s)
Please reply with the bare figure in mPa·s and do not write the unit itself.

What does the data say about its viscosity? Entry: CC(C)CCl 0.4833

I'd like to know its viscosity. The compound in question is CC(C)OC(C)C 0.3486

# get_value(readout='viscosity', item= CCC(C)Cl (stereo not given) ) 0.4365

Entry CCCCCl : reported viscosity = ? 0.4701

Sample CC(C)(C)Cl — what was its viscosity? 0.5538

* * *

# testSettings: 313.15 K; 101 kPa; Liquid; Capillary tube (Ostwald / Ubbelohde) method
Please go through the items and note down their viscosity.
Kindly answer with a numeric value in mPa·s, unit omitted.

Return reported viscosity; argument: CC(C)OC(C)C 0.2723

Using the record for CCC(C)Cl (stereo not given) , report its viscosity. 0.3443

Returns the measured viscosity for the input compound. Input: CCCCCl 0.3642

What measured viscosity goes with CC(C)(C)Cl ? 0.3904

Given the compound CC(C)CCl , what is its reported viscosity? 0.3726

* * *

# testSettings: 283.15 K; 101.3 kPa; Liquid
endpoint: mass density (kg/m3)
Give the value in kg/m3 but do not write kg/m3 after it.

Find the recorded mass density belonging to CC(C)(C)Cl [2-chloro-2-methylpropane] and report it. 855.249

What value of mass density has been recorded for this entry: CC(C)OC(C)C [diisopropyl ether] 733.833

Which mass density value belongs to CCC(C)Cl (stereo not given) [2-chlorobutane] ? 884.34

// returns reported mass density for input CCCCCl [1-chlorobutane] 897.339

What does the data say about its mass density? Entry: CC(C)CCl [1-chloro-2-methylpropane] 888.845

* * *

# testSettings: 293.15 K; 101 kPa; Liquid; Capillary tube (Ostwald / Ubbelohde) method
Criterion: viscosity meeting or surpassing 0.4 mPa·s. Met: 1.0. Not met: 0.0.

Check if viscosity >= 0.4 mPa·s (inclusive). Item: CC(C)CCl 1.0

Assess whether reported viscosity for CCCCCl sits at 0.4 mPa·s or higher. 1.0

# bool: viscosity of CCC(C)Cl (stereo not given) >= 0.4 mPa·s 1.0

Quick check: does CC(C)(C)Cl have viscosity greater than or equal to 0.4 mPa·s? 1.0

Hello, I need to know if CC(C)OC(C)C has measured viscosity not below 0.4 mPa·s. Thanks! 0.0

* * *

Would you kindly list mass density for each of these compounds?
# testSettings: 293.15 K; 101.3 kPa; Liquid
Give the value in kg/m3 but do not write kg/m3 after it.

Which mass density value is on record for CCC(C)Cl (stereo not given) ? 873.13

Sample CCCCCl — what was its mass density? 886.335

Name the recorded mass density for CC(C)CCl . 877.539

May I ask what mass density has been recorded for CC(C)OC(C)C ? 723.509

Reported mass density for CC(C)(C)Cl : what is it? 843.191

* * *

# testSettings: 298.15 K; 101 kPa; Liquid; Capillary tube (Ostwald / Ubbelohde) method
Quick rule for you: viscosity at 0.4 mPa·s or higher means MET, lower means NOT MET.

Test whether the molecule CC(C)(C)Cl records viscosity of 0.4 mPa·s or higher. MET

Form field: viscosity at least 0.4 mPa·s? Entry: CCCCCl MET

Textbook exercise: given the entry CC(C)CCl , state whether its viscosity is greater than or equal to 0.4 mPa·s. MET

For this molecule, is measured viscosity 0.4 mPa·s or higher? CC(C)OC(C)C NOT MET

* * *

# testSettings: 283.15 K; 101 kPa; Liquid; Capillary tube (Ostwald / Ubbelohde) method
# note: exactly 0.5 mPa·s is not below, so it is not fulfilled; use fulfilled for viscosity strictly under it

Quick check: does CCC(C)Cl (stereo not given) [2-chlorobutane] have viscosity under 0.5 mPa·s? fulfilled

Is the reported viscosity for CC(C)(C)Cl [2-chloro-2-methylpropane] strictly below 0.5 mPa·s? not fulfilled

Say whether its viscosity is strictly beneath 0.5 mPa·s. Entry: CC(C)CCl [1-chloro-2-methylpropane] not fulfilled

For CC(C)OC(C)C [diisopropyl ether] , is the recorded viscosity below the cut-off of 0.5 mPa·s? fulfilled
